molecular target: UniProt Q12866; assay: radiometric filter-binding kinase assay, Kinase HotSpot; settings: compound 0.5 µM; ATP 10 µM
Sequence (Q12866 whole entry, looked up): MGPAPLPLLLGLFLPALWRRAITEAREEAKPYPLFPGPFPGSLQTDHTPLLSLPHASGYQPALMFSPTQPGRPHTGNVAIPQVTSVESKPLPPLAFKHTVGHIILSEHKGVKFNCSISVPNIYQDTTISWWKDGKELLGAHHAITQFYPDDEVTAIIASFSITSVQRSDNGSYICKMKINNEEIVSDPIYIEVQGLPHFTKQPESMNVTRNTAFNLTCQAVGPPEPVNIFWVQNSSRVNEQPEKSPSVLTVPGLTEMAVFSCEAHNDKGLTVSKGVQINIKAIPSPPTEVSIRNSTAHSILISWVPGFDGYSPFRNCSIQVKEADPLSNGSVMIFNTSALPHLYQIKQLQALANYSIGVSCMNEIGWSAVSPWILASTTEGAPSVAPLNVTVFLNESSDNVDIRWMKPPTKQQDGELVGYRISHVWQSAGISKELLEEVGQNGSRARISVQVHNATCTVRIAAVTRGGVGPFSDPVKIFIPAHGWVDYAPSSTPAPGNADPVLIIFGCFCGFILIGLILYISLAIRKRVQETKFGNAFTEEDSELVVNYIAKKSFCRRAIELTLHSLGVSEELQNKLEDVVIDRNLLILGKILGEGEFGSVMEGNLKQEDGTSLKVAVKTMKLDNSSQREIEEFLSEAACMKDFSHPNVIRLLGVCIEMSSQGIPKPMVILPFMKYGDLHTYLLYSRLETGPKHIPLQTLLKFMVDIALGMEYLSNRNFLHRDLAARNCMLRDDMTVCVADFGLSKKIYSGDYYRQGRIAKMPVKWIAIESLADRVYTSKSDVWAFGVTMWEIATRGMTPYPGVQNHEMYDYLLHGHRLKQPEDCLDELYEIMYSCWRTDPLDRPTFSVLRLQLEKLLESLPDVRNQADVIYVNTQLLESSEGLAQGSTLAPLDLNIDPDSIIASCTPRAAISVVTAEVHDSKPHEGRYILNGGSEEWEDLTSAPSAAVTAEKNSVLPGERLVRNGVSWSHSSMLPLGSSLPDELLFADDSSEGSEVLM
Measurement Label: residual activity (%)
Answer with a number only, understood to be in %.

*Q* Recall the recorded residual activity for O=C1NC(=O)c2cc(Nc3ccc(F)cc3)c(Nc3ccc(F)cc3)cc21 with UniProt Q12866 and state it.
*A* 97.4

*Q* Recall the recorded residual activity for O=c1cc(N2CCOCC2)oc2c(-c3ccccc3)cccc12 with UniProt Q12866 and state it.
*A* 95.2

*Q* Recall the recorded residual activity for N#CCCc1ccc2c(c1)-c1[nH]c3ccc([N+](=O)[O-])cc3c1CC(=O)N2 with UniProt Q12866 and state it.
*A* 77.5

*Q* Recall the recorded residual activity for Nc1ncnc2c1cnn2-c1ccccc1 with UniProt Q12866 and state it.
*A* 94.3

*Q* Recall the recorded residual activity for O=C(O)c1ccc2c3c1cccc3c(=O)n1c3ccccc3nc21 with UniProt Q12866 and state it.
*A* 77.7

*Q* Recall the recorded residual activity for O=C1NC(=O)c2c1c1c3ccccc3[nH]c1c1[nH]c3cc(Br)ccc3c21 with UniProt Q12866 and state it.
*A* 69.1

More entries:
*Q* Recall the recorded residual activity for COc1cc2c(Nc3ccc(Br)cc3F)ncnc2cc1OCC1CCN(C)CC1 with UniProt Q12866 and state it.
*A* 47.9
